Assay: Serum stability assay in human serum (LC/MS)
Details: human, Remaining peptide (%), 37 °C, incubation time 1 h, relative to 0 h = 100%, technical replicates
Numbered stars: 1 amine (or outer) side, 2 acyl side, 3 side chain; on linkers, the order of the positions; unused ones are H or OH. Bridge positions count the residues as written; N and C are the ends. Square brackets hold non-standard residues; d marks the D form. Peptide text beside a SMILES is read from it. Acbc(cis-1,3) = O=C([C@H]1C[C@@H](N[*:1])C1)[*:2]

COMPOUND	remaining at 1 h, 10 μM, %
CC(C)C[C@@H]1NC(=O)[C@H](CC(N)=O)NC(=O)[C@H](CC(C)C)NC(=O)[C@H]2C[C@H](C2)NC(=O)[C@H](CCC(N)=O)NC(=O)[C@H](Cc2ccccc2)NC(=O)[C@@H](Cc2ccc(O)cc2)NC(=O)CSC[C@H](C(N)=O)NC(=O)CNC(=O)[C@@H]2CCCN2C(=O)[C@H](CCCNC(=N)N)NC(=O)[C@H](Cc2ccc(O)cc2)NC(=O)CNC1=O [GM4H3Q] ({CH2CO}-[dY]FQ[Acbc(cis-1,3)]LNLGYRPG[dC]-NH2; thioether N-13)	93.4

---

Molecular target: SARS-CoV-2 M^pro (Severe acute respiratory syndrome coronavirus 2, UniProt P0DTD1)
Numbered stars: 1 amine (or outer) side, 2 acyl side, 3 side chain; on linkers, the order of the positions; unused ones are H or OH. Bridge positions count the residues as written; N and C are the ends. Square brackets hold non-standard residues; d marks the D form. Peptide text beside a SMILES is read from it. Acbc(cis-1,3) = O=C([C@H]1C[C@@H](N[*:1])C1)[*:2]; X1 = O=C([C@@H]1CC[C@H](N[*:1])C1)[*:2]

COMPOUND	Kd
CC[C@H](C)[C@@H]1NC(=O)[C@H](Cc2ccc(O)cc2)NC(=O)[C@H](CC(C)C)NC(=O)[C@H](CC(=O)O)NC(=O)[C@H](CCCNC(=N)N)NC(=O)[C@H](Cc2ccccc2)NC(=O)[C@@H]2CC[C@@H](C2)NC(=O)[C@H](Cc2c[nH]cn2)NC(=O)[C@H](Cc2ccccc2)NC(=O)[C@@H](Cc2ccc(O)cc2)NC(=O)CSC[C@H](C(N)=O)NC(=O)CNC(=O)[C@H](CC(C)C)NC1=O [GM5] ({CH2CO}-[dY]FH[X1]FRDLYILG[dC]-NH2; thioether N-13)	5.2 nM
CC(C)C[C@@H]1NC(=O)[C@H]([C@@H](C)O)NC(=O)[C@H](Cc2ccc(O)cc2)NC(=O)[C@H]([C@@H](C)O)NC(=O)[C@H](Cc2c[nH]cn2)NC(=O)[C@@H]2CCCN2C(=O)[C@@H]2CCCN2C(=O)[C@H](Cc2ccccc2)NC(=O)[C@H]2C[C@H](C2)NC(=O)[C@H](Cc2c[nH]cn2)NC(=O)[C@H](Cc2ccccc2)NC(=O)[C@@H](Cc2ccc(O)cc2)NC(=O)CSC[C@H](C(N)=O)NC1=O [GM1] ({CH2CO}-[dY]FH[Acbc(cis-1,3)]FPPHTYTL[dC]-NH2; thioether N-13)	2.3 nM

---

Experiment: Serum stability assay in human serum (LC/MS)
Settings: human, Remaining peptide (%), 37 °C, incubation time 1 h, relative to 0 h = 100%, technical replicates
Numbered stars: 1 amine (or outer) side, 2 acyl side, 3 side chain; on linkers, the order of the positions; unused ones are H or OH. Bridge positions count the residues as written; N and C are the ends. Square brackets hold non-standard residues; d marks the D form. Peptide text beside a SMILES is read from it. Acbc(cis-1,3) = O=C([C@H]1C[C@@H](N[*:1])C1)[*:2]
Binarize remaining at 1 h, 10 μM at 80%; below is TRUE, at or above is FALSE.

COMPOUND	CAT
CC(C)C[C@@H]1NC(=O)[C@H]([C@@H](C)O)NC(=O)[C@H](Cc2ccc(O)cc2)NC(=O)[C@H]([C@@H](C)O)NC(=O)[C@H](Cc2c[nH]cn2)NC(=O)[C@@H]2CCCN2C(=O)[C@@H]2CCCN2C(=O)[C@H](Cc2ccccc2)NC(=O)[C@H](C)NC(=O)[C@H](Cc2c[nH]cn2)NC(=O)[C@H](Cc2ccccc2)NC(=O)[C@@H](Cc2ccc(O)cc2)NC(=O)CSC[C@H](C(N)=O)NC1=O [GM1γ^14A] ({CH2CO}-[dY]FHAFPPHTYTL[dC]-NH2; thioether N-13)	FALSE
CC[C@H](C)[C@@H]1NC(=O)[C@H](Cc2ccc(O)cc2)NC(=O)[C@H](CC(C)C)NC(=O)[C@H](CC(=O)O)NC(=O)[C@H](CCCNC(=N)N)NC(=O)[C@H](Cc2ccccc2)NC(=O)[C@H](C)NC(=O)[C@H](Cc2c[nH]cn2)NC(=O)[C@H](Cc2ccccc2)NC(=O)[C@@H](Cc2ccc(O)cc2)NC(=O)CSC[C@H](C(N)=O)NC(=O)CNC(=O)[C@H](CC(C)C)NC1=O [GM5γ^24A] ({CH2CO}-[dY]FHAFRDLYILG[dC]-NH2; thioether N-13)	FALSE
CC(C)C[C@@H]1NC(=O)[C@H]([C@@H](C)O)NC(=O)[C@H](Cc2ccc(O)cc2)NC(=O)[C@H]([C@@H](C)O)NC(=O)[C@H](Cc2c[nH]cn2)NC(=O)[C@@H]2CCCN2C(=O)[C@@H]2CCCN2C(=O)[C@H](Cc2ccccc2)NC(=O)[C@H]2C[C@H](C2)NC(=O)[C@H](Cc2c[nH]cn2)NC(=O)[C@H](Cc2ccccc2)NC(=O)[C@@H](Cc2ccc(O)cc2)NC(=O)CSC[C@H](C(N)=O)NC1=O [GM1] ({CH2CO}-[dY]FH[Acbc(cis-1,3)]FPPHTYTL[dC]-NH2; thioether N-13)	FALSE
CC(C)C[C@@H]1NC(=O)[C@H](C)NC(=O)[C@H](Cc2c[nH]cn2)NC(=O)[C@H](Cc2ccccc2)NC(=O)[C@@H](Cc2ccc(O)cc2)NC(=O)CSC[C@H](C(N)=O)NC(=O)CNC(=O)[C@@H]2CCCN2C(=O)[C@H](CCCNC(=N)N)NC(=O)[C@H](Cc2ccc(O)cc2)NC(=O)CNC(=O)[C@H](CC(C)C)NC(=O)[C@H](CC(N)=O)NC1=O [GM4γ^14A] ({CH2CO}-[dY]FHALNLGYRPG[dC]-NH2; thioether N-13)	TRUE
CC(C)C[C@@H]1NC(=O)[C@H](CC(N)=O)NC(=O)[C@H](CC(C)C)NC(=O)[C@H]2C[C@H](C2)NC(=O)[C@H](Cc2c[nH]cn2)NC(=O)[C@H](Cc2ccccc2)NC(=O)[C@@H](Cc2ccc(O)cc2)NC(=O)CSC[C@H](C(N)=O)NC(=O)CNC(=O)[C@@H]2CCCN2C(=O)[C@H](CCCNC(=N)N)NC(=O)[C@H](Cc2ccc(O)cc2)NC(=O)CNC1=O [GM4] ({CH2CO}-[dY]FH[Acbc(cis-1,3)]LNLGYRPG[dC]-NH2; thioether N-13)	FALSE
